# test.description: Ratio of drug level in brain to plasma in mouse at 1 mg/kg, ip administered as cassette dosing
# Format: ADME, organism-based
# Design: dose 1 mg/kg, route intraperitoneal
endpoint.name: BPR
One number for each entry.

Solved cases below.
compound | readout.number
COc1ccc(C(=O)NCc2cc(C(C)C)no2)cc1OCCN1CCCCC1 | 0.07
COc1ccc(C(=O)NC(C)Cc2ccccn2)cc1OC1CCN(C(C)C)CC1 (stereo unspecified) | 1.1
COc1ccc(C(=O)NCc2cc(C(C)C)no2)cc1OC1CCN(C)CC1 | 0.28

Lab note: next compound to report on.
IN: Would you mind telling me what BPR value was observed for `COc1ccc(C(=O)NCc2csc(C)n2)cc1OC1CCN(C(C)C)CC1` ?
OUT: 0.19
